# Lookup of reported cell viability keyed by entry
- System: NOMO1
- test-name: cell viability relative to DMSO control; higher = less cytotoxic
- details: RPMI 5 mM glucose + 10% dialyzed FBS; 48 h; 0.000781 µM
readout: cell viability (%)

entry_smiles=CCCCCCCCCCCCCCCCCCOP(=O)([O-])OC1CC[N+](C)(C)CC1 readout="cell viability" assay_result=96.6
entry_smiles=CN[C@@H]1C[C@H]2O[C@@](C)([C@@H]1OC)n1c3ccccc3c3c4c(c5c6ccccc6n2c5c31)C(=O)N[C@H]4O readout="cell viability" assay_result=79.9
entry_smiles=COC1=CC2=C(C=C1OC)[C@H]3[C@@H](CO2)OC4=C(C=CC5=C4\C=C/C(C)(C)O5)C3=O readout="cell viability" assay_result=86.3
entry_smiles=Oc1cc(O)cc(/C=C/c2ccc(O)c(O)c2)c1 readout="cell viability" assay_result=81.6
entry_smiles=NC\1=N\C(=O)N(\C=C1)[C@H]\2[C@H](O)[C@H](O)C(=C2F)\CO readout="cell viability" assay_result=89.1
entry_smiles=CC(C)c1ccccc1Cc1cc(C(=O)Nc2ccc([S+](=O)([O-])c3ccccc3C(C)(C)C)cc2)c(O)c(O)c1O readout="cell viability" assay_result=103
entry_smiles=CN(C)c1ccc2cc(C(=O)N[C@@H](CCCNC(=N)CCl)C(=O)NCc3ccccc3)ccc2c1 readout="cell viability" assay_result=114
entry_smiles=CC(=O)[C@H]1CC[C@H]2[C@@H]3CCC4=CC(=O)CC[C@]4(C)[C@H]3CC[C@]12C readout="cell viability" assay_result=114

----------
- System: SEM cells
- test-name: AUC of viability dose-response curve (% viability x log10 dose units); higher = less sensitive
- details: HPLM + 10% dialyzed FBS; 48 h
hey, just use Y if measured AUC of viability dose-response curve is less than 400, otherwise N

molecule=N#CC(=C(/N)Sc1ccccc1N)/C(C#N)=C(\N)Sc1ccccc1N classification=N
molecule=C#Cc1cccc(Nc2ncnc3cc(OC)c(OCCCCCCC(=O)NO)cc23)c1 classification=Y
molecule="CO[C@@H]1C(N(C)C(=O)c2ccccc2)C[C@H]2O[C@]1(C)n1c3ccccc3c3c4c(c5c6ccccc6n2c5c31)C(=O)NC4=O (stereo partly drawn)" classification=Y
molecule=Nc1nc(OCc2ccccc2)c2nc[nH]c2n1 classification=N
molecule=O=C1N\2CCC3=C([NH]C4=C3C=CC=C4)C2=N/C5=CC=CC=C15 classification=N
molecule=CC[C@@]1([C@@H]2O[C@@H]([C@H]3O[C@@](O)(CO)[C@H](C)C[C@@H]3C)C[C@@H]2C)CC[C@H]([C@]2(C)CC[C@]3(C[C@H](O)[C@@H](C)[C@@H]([C@@H](C)[C@@H](OC)[C@H](C)C(=O)[O-])O3)O2)O1 classification=Y
molecule=O=C1CC[C@@]2(O)[C@H]3Cc4ccc(O)c5c4[C@@]2(CCN3CC2CC2)[C@H]1O5 classification=N
molecule=N\C1=N\C2=C(N=C[N]2COC(CO)CO)C(=O)N1 classification=N
molecule=COc1cc(OC)c(NC(=O)Nc2cc(C)on2)cc1Cl classification=N
molecule=C#C[C@]1(O)CC[C@H]2[C@@H]3CCc4cc(OC)ccc4[C@H]3CC[C@@]21C classification=N
molecule=O=[N+]([O-])c1cnc(Sc2nnc(O)n2-c2ccc3c(c2)OCCO3)s1 classification=Y
molecule=CC(C)[C@H](CO)Nc1nc(Nc2cccc(Cl)c2)c2ncn(C(C)C)c2n1 classification=Y
molecule=CC(=O)NC[C@H]1CN(c2ccc(N3CCOCC3)c(F)c2)C(=O)O1 classification=N
molecule=CC[C@@]1(O)C[C@H](O[C@H]2C[C@H](N(C)C)[C@H](O[C@H]3C[C@H](O)[C@H](O[C@H]4CCC(=O)[C@H](C)O4)[C@H](C)O3)[C@H](C)O2)c2c(cc3c(c2O)C(=O)c2c(O)cccc2C3=O)[C@H]1C(=O)OC classification=Y
molecule="O=C1NC(O)CCN1[C@@H]1O[C@H](CO)[C@@H](O)[C@H]1O (stereo partly drawn)" classification=N
molecule="COC1=CC=C(C=C1)C2CC(=N/N2C3=CC=C(C=C3)[S+](N)([O-])=O)\\C4=CC=CC=C4 (stereo not drawn)" classification=Y
molecule=CCOC1=CC(=CC=C1C/2=N/[C@@](C)(C3=CC=C(Cl)C=C3)[C@](C)(N2C(=O)N4CCN(CC4)CC(=O)N5CCOCC5)C6=CC=C(Cl)C=C6)C(C)(C)C classification=N
molecule=CN(C)CCCNC(=O)c1ccc(-c2cc(O)c3ncccc3c2)cc1 classification=N
molecule=CCCCCCCCCCCCCCCCCCOP(=O)([O-])OC1CC[N+](C)(C)CC1 classification=N
molecule="CC(C)NCC(O)c1ccc(NS(C)(=O)=O)cc1 (stereo not drawn)" classification=N
molecule=CCOC(=O)[C@H](CCc1ccccc1)N[C@@H](C)C(=O)N1[C@H](C(=O)O)C[C@@H]2CCC[C@@H]21 classification=N
